Entries annotated with measured IC50
procedure-summary: Inhibition of full length HCV 1b Con1 NS3/4A protease using HiLyte Fluor 610 peptide substrate by biochemical FRET assay
Parameters: species or system Hepatitis C virus (isolate Con1)

{"columns": ["sample-smiles", "unit-of-measurement", "IC50"],
 "data": [
  ["COc1ccc2c(OCC[C@@H]3NC(=O)N(C)CCCC/C=C\\[C@@H]4C[C@@]4(C(=O)NS(=O)(=O)N4CCC[C@H]4C#N)NC3=O)cc(-c3nc(C(C)C)cs3)nc2c1Cl", "nM", 264],
  ["COc1ccc2c(OCC[C@@H]3NC(=O)N(C)CCCC/C=C\\[C@@H]4C[C@@]4(C(=O)NS(=O)(=O)C4(C#N)CC4)NC3=O)cc(-c3nc(C(C)C)cs3)nc2c1Cl", "nM", 14.4],
  ["COc1ccc2c(OCC[C@@H]3NC(=O)N(C)CCCC/C=C\\[C@@H]4C[C@@]4(C(=O)NS(=O)(=O)C4(C)CC4)NC3=O)cc(-c3nc(C(C)C)cs3)nc2c1", "nM", 0.9],
  ["COc1ccc2c(OCC[C@@H]3NC(=O)N(C)CCCC/C=C\\[C@@H]4C[C@@]4(C(=O)NS(=O)(=O)C4(C)CC4)NC3=O)cc(-n3ccc(C(F)(F)F)n3)nc2c1C", "nM", 1.8],
  ["COc1ccc2c(OCC[C@@H]3NC(=O)N(C)CCCC/C=C\\[C@@H]4C[C@@]4(C(=O)NS(=O)(=O)C4CC4)NC3=O)cc(-c3nc(C(C)C)cs3)nc2c1Cl", "nM", 1.7]
]}

----------
procedure-summary: Cytotoxicity against human GS4.1 cells assessed as induction of cell death
Assay type: cell-based
The entries below come with measured CC50 values attached.

{"columns": ["sample-smiles", "CC50 / µM"],
 "data": [
  ["COc1ccc2c(OCC[C@@H]3NC(=O)N(C)CCCC/C=C\\[C@@H]4C[C@@]4(C(=O)NS(=O)(=O)C4(C)CC4)NC3=O)cc(-c3nc(C(C)C)cs3)nc2c1Cl", 37.4],
  ["COc1ccc2c(OCC[C@@H]3NC(=O)N(C)CCCC/C=C\\[C@@H]4C[C@@]4(C(=O)NS(=O)(=O)C4(C)CC4)NC3=O)cc(-c3nc(C(C)C)cs3)nc2c1F", 57.1],
  ["CCCn1cc(-c2cc(OCC[C@@H]3NC(=O)N(C)CCCC/C=C\\[C@@H]4C[C@@]4(C(=O)NS(=O)(=O)C4(C)CC4)NC3=O)c3ccc(OC)c(C)c3n2)cn1", 62.3],
  ["COc1ccc2c(OCC[C@@H]3NC(=O)N(C)CCCC/C=C\\[C@@H]4C[C@@]4(C(=O)NS(=O)(=O)N4CCC[C@H]4C#N)NC3=O)cc(-c3nc(C(C)C)cs3)nc2c1Cl", 28.3],
  ["COc1ccc2c(OCC[C@@H]3NC(=O)N(C)CCCC/C=C\\[C@@H]4C[C@@]4(C(=O)NS(=O)(=O)N(C)C)NC3=O)cc(-c3nc(C(C)C)cs3)nc2c1Cl", 47.8]
]}

----------
procedure-summary: Clearance in Sprague-Dawley rat at 2 mg/kg, iv
Format: ADME, organism-based
assay-setup: in vivo
readout-kind: clearance

{"columns": ["sample-smiles", "readout-kind", "assay-value"],
 "data": [
  ["COc1ccc2c(OCC[C@@H]3NC(=O)N(C)CCCC/C=C\\[C@@H]4C[C@@]4(C(=O)NS(=O)(=O)C4(C)CC4)NC3=O)cc(-c3nc(C(C)C)cs3)nc2c1Cl", "clearance", "22.1 mL/min/kg"]
]}
